- Tested on: UO-31
- Test description: NCI 60 panel: UO-31 (Renal Cancer)
- Type: cell-based
- Condition summary: read-out: LC50 (the source's name)

{"columns": ["Smiles entry", "CC50"],
 "data": [
  ["COc1ccccc1Nc1nc(-c2cc3cccc(N)c3oc2=O)cs1", "> 100 µM"]
]}

====

- Test system: MDA-MB-468
- Test description: NCI 60 panel: MDA-MB-468 (Breast Cancer)
- Format: cell-based
- Condition summary: read-out: LC50 (the source's name)

{"columns": ["Smiles entry", "CC50 [µM]"],
 "data": [
  ["COc1ccccc1Nc1nc(-c2cc3cccc(N)c3oc2=O)cs1", 60.9]
]}
